Reference source for all entries: patent US7462600B2

system: Streptococcus pneumoniae 1175; type: cell-based; details: Streptococcus pneumoniae 1175; microtiter broth dilution
Kindly state MIC S. pneumo. 1175 for each of the entries shown.

Bench note: what MIC S. pneumo. 1175 did CC[C@H]1OC(=O)[C@H](C)C(=O)[C@H](C)[C@@H](O[C@@H]2O[C@H](C)C[C@H](N(C)C)[C@H]2O)[C@](C)(OC)C[C@@H](C)C(=O)[C@H](C)[C@H]2N(CC3(C)CN(Cc4ccc5ncccc5c4)C3)C(=O)O[C@]12C [6.01] show?
0.5 µg/mL

Bench note: what MIC S. pneumo. 1175 did CCC1OC(=O)C(C)C(=O)C(C)C(OC2OC(C)CC(N(C)C)C2O)C(C)(OC)CC(C)C(=O)C(C)C2N(C3CN(S(=O)(=O)c4ccc(F)c(C#N)c4)C3)C(=O)OC12C (stereo not shown) [Example 3.77] show?
<0.06 µg/mL

Bench note: what MIC S. pneumo. 1175 did CCC1OC(=O)C(C)C(=O)C(C)C(OC2OC(C)CC(N(C)C)C2O)C(C)(OC)CC(C)C(=O)C(C)C2N(C3CN(S(=O)(=O)c4ccc(-c5nc6ccc(C)cc6s5)cc4)C3)C(=O)OC12C (stereo not shown) [Example 3.54] show?
4 µg/mL

Bench note: what MIC S. pneumo. 1175 did CCC1OC(=O)C(C)C(=O)C(C)C(OC2OC(C)CC(N(C)C)C2O)C(C)(OC)CC(C)C(=O)C(C)C2N(C3CN(S(=O)(=O)c4cccc(-c5ncon5)c4)C3)C(=O)OC12C (stereo not shown) [Example 3.41] show?
<0.06 µg/mL

Bench note: what MIC S. pneumo. 1175 did CCC1OC(=O)C(C)C(=O)C(C)C(OC2OC(C)CC(N(C)C)C2O)C(C)(OC)CC(C)C(=O)C(C)C2N(C3CN(S(=O)(=O)c4ccc(-c5ccc(Cl)nn5)cc4)C3)C(=O)OC12C (stereo not shown) [Example 3.78] show?
<0.06 µg/mL

Bench note: what MIC S. pneumo. 1175 did CCC1OC(=O)C(C)C(=O)C(C)C(OC2OC(C)CC(N(C)C)C2O)C(C)(OC)CC(C)C(=O)C(C)C2N(C3CN(Cc4ccc(OC)c5ncccc45)C3)C(=O)OC12C (stereo not shown) [Example 1.70] show?
<0.063 µg/mL

Bench note: what MIC S. pneumo. 1175 did CCC1OC(=O)C(C)C(=O)C(C)C(OC2OC(C)CC(N(C)C)C2O)C(C)(OC)CC(C)C(=O)C(C)C2N(C3CN(C(C)c4ccnc5cccnc45)C3)C(=O)OC12C (stereo not shown) [Example 1.37] show?
0.25 µg/mL

Bench note: what MIC S. pneumo. 1175 did CCC1OC(=O)C(C)C(=O)C(C)C(OC2OC(C)CC(N(C)C)C2O)C(C)(OC)CC(C)C(=O)C(C)C2N(C3CN(Cc4c(OC)cnc5ncccc45)C3)C(=O)OC12C (stereo not shown) [Example 1.72] show?
<0.063 µg/mL

Bench note: what MIC S. pneumo. 1175 did CCC1OC(=O)C(C)C(=O)C(C)C(OC2OC(C)CC(N(C)C)C2O)C(C)(OC)CC(C)C(=O)C(C)C2N(C3CN(S(=O)(=O)c4ccc(-c5csnn5)cc4)C3)C(=O)OC12C (stereo not shown) [Example 3.45] show?
<0.06 µg/mL

Bench note: what MIC S. pneumo. 1175 did CCC1OC(=O)C(C)C(=O)C(C)C(OC2OC(C)CC(N(C)C)C2O)C(C)(OC)CC(C)C(=O)C(C)C2N(C3CN(S(=O)(=O)c4ccc(-n5nccn5)cc4)C3)C(=O)OC12C (stereo not shown) [Example 3.55] show?
<0.06 µg/mL
